experiment: self-splicing fitness, log relative to wild type (ln ratio); higher = more splicing; Tetrahymena group I intron in knt gene, E. coli kanamycin selection, DiMSum; sequences stand for … in CUCUCU…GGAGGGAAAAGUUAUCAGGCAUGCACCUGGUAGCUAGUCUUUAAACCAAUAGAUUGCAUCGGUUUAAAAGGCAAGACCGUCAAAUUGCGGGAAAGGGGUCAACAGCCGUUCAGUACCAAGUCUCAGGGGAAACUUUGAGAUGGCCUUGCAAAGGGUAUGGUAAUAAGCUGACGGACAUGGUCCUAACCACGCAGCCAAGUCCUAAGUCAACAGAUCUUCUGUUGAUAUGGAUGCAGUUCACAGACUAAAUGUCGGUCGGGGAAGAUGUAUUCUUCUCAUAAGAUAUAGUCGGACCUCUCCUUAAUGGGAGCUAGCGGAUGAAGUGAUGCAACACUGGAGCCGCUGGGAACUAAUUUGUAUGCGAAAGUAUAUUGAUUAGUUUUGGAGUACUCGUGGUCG; conditions: 30 °C;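 further: selection with 25 µg/mL kanamycin versus none on LB agar overnight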
The threshold is inclusive: self-splicing fitness (ln) of exactly -2 counts as condition met; values below receive condition not met.

sequence_input	label
UUGAAGCAAUAUUACGCAUA	condition met
GGGUAGCAAUAUUACGUCCA	condition met
CGAUAGCAAUAUUACGUGCA	condition not met
CUCAAGCAAUAUUACGCAAA	condition not met
UUCCAGCAAUAUUACGAAGA	condition met
AUGGAGCAAUAUUACGAGGC	condition not met
AAGAAGCAAUAUUACGGCAA	condition met
UGCAAGCAAUAUUACGCUAU	condition not met
GUCUAGCAAUAUUACGGACG	condition met
CCCCAGCAAUAUUACGCAGA	condition not met
GCCCAGCAAUAUUACGAAGG	condition not met
UGUGAGCAAUAUUACGCGAA	condition not met
GCGCAGCAAUAUUACGGUUU	condition met
AUCGAGCAAUAUUACGGGGA	condition not met
ACGGAGCAAUAUUACGAUUA	condition not met
GAAUAGCAAUAUUACGUAUG	condition met
AUGCAGCAAUAUUACGCAGU	condition not met
UUUCAGCAAUAUUACGAGCG	condition met
GAAGAGCAAUAUUACGGACU	condition not met
GGUCAGCAAUAUUACGUGUA	condition met
GCCCAGCAAUAUUACGCAUC	condition met
UUAUAGCAAUAUUACGAGGG	condition not met
UCACAGCAAUAUUACGCUGA	condition not met
GAAUAGCAAUAUUACGGGCA	condition met
GGCUAGCAAUAUUACGUGGG	condition not met
GAAUAGCAAUAUUACGCUAC	condition met
ACAAAGCAAUAUUACGCCGA	condition not met
AAUUAGCAAUAUUACGAGCG	condition met
CCCUAGCAAUAUUACGACUU	condition not met
CUUCAGCAAUAUUACGUGAC	condition not met
GAGCAGCAAUAUUACGAGUC	condition met
ACUAAGCAAUAUUACGGGAG	condition not met
GGAUAGCAAUAUUACGAUGA	condition met
UGCUAGCAAUAUUACGAAUU	condition not met
CCUUAGCAAUAUUACGGUUC	condition not met
GAUAAGCAAUAUUACGAAAC	condition not met
CUUGAGCAAUAUUACGUCGU	condition not met
GACUAGCAAUAUUACGACAA	condition met
GGUUAGCAAUAUUACGCUUG	condition not met
CUCAAGCAAUAUUACGCCUC	condition not met
ACCUAGCAAUAUUACGGACG	condition met
GAGCAGCAAUAUUACGAGUA	condition not met
AAUCAGCAAUAUUACGUAUG	condition met
UGACAGCAAUAUUACGCUAA	condition met
CGCAAGCAAUAUUACGAUUA	condition not met
CCAUAGCAAUAUUACGUACA	condition not met

====

test: self-splicing fitness, log relative to wild type (ln ratio); higher = more splicing; Tetrahymena group I intron in knt gene, E. coli kanamycin selection, DiMSum; sequences stand for … in CUCUCU…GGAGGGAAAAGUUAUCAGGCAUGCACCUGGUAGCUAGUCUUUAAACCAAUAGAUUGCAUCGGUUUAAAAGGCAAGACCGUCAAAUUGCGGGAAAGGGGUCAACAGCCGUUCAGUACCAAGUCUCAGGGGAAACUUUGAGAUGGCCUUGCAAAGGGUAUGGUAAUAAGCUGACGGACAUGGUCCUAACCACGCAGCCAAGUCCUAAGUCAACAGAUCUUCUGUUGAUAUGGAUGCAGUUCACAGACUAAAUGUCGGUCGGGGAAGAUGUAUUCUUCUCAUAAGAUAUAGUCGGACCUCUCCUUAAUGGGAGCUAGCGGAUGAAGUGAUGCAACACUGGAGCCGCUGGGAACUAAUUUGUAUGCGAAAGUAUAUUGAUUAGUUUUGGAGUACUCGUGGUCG; conditions: 37 °C
Use -0.8 as the dividing line for self-splicing fitness (ln), with the line itself on the class 1 side and lower values as class 0.

sequence_input	label
GCCCAGCAAUAUUACGAGAG	class 0
ACAAAGCAAUAUUACGACCC	class 1
GAGCAGCAAUAUUACGUACA	class 1
GGAAAGCAAUAUUACGAAGG	class 0
UACCAGCAAUAUUACGCACC	class 1
UACGAGCAAUAUUACGUACA	class 0
CAGUAGCAAUAUUACGAAAA	class 0
ACUCAGCAAUAUUACGUCUU	class 1
AGCCAGCAAUAUUACGAUAC	class 0
UUGAAGCAAUAUUACGUUAG	class 1
GGAUAGCAAUAUUACGAUGA	class 0
GCACAGCAAUAUUACGAGAA	class 1
UCCGAGCAAUAUUACGAUCC	class 1
GUGGAGCAAUAUUACGGGCA	class 0
UGGAAGCAAUAUUACGUCAG	class 1
GAUCAGCAAUAUUACGAGUU	class 0
UUCAAGCAAUAUUACGUAUA	class 1
AAAAAGCAAUAUUACGGAAG	class 0
CCUCAGCAAUAUUACGAUGG	class 0
CACGAGCAAUAUUACGAGCG	class 0
ACAAAGCAAUAUUACGUCAA	class 0
AAUUAGCAAUAUUACGCUGG	class 0
ACGUAGCAAUAUUACGACUA	class 1
GAGCAGCAAUAUUACGUUAG	class 0
UCUCAGCAAUAUUACGGUUA	class 1
CAACAGCAAUAUUACGCAAU	class 0
UAGCAGCAAUAUUACGAGAA	class 0
AUGAAGCAAUAUUACGCUAG	class 1
GGAGAGCAAUAUUACGCUUA	class 1
ACUAAGCAAUAUUACGUUCC	class 0
GCACAGCAAUAUUACGAUGG	class 0
AUCCAGCAAUAUUACGAGGU	class 0
CGGAAGCAAUAUUACGCAGG	class 0
GACGAGCAAUAUUACGAGGA	class 0
UUUAAGCAAUAUUACGCCUA	class 1
AACCAGCAAUAUUACGUGGU	class 0
CUUUAGCAAUAUUACGUGAU	class 0
CCACAGCAAUAUUACGACUG	class 1
ACUAAGCAAUAUUACGAAAU	class 0
GGGAAGCAAUAUUACGGGAA	class 0
UUGGAGCAAUAUUACGGGGG	class 0
UCAUAGCAAUAUUACGAUUG	class 0
AUGAAGCAAUAUUACGUAAG	class 1
UACUAGCAAUAUUACGCAGA	class 0
UAGCAGCAAUAUUACGCUUU	class 1
UGCAAGCAAUAUUACGUACA	class 1
GGUUAGCAAUAUUACGGCUC	class 1
UUACAGCAAUAUUACGACUC	class 0

====

assay: self-splicing fitness, log relative to wild type (ln ratio); higher = more splicing; Tetrahymena group I intron in knt gene, E. coli kanamycin selection, DiMSum; sequences stand for … in CUCUCU…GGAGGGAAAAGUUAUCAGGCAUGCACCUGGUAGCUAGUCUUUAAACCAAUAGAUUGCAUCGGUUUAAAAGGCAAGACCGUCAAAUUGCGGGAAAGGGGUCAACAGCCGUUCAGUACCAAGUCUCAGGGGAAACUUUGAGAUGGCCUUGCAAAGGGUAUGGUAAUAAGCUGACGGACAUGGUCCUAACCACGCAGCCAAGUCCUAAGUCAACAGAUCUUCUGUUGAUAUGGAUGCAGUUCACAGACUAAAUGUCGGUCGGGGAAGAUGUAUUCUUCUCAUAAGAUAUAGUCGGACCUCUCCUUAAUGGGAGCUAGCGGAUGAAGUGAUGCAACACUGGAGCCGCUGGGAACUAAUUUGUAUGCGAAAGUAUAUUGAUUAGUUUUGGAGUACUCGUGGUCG; details: 30 °C
Quick list: self-splicing fitness (ln) per entry.
measured_metric: self-splicing fitness (ln)

sequence_input	measured_metric	value_reported
GAGGAGCAAUAUUACGAACG	self-splicing fitness (ln)	-2.65
GUAGAGCAAUAUUACGUACG	self-splicing fitness (ln)	-1.92
ACGUAGCAAUAUUACGCGUC	self-splicing fitness (ln)	-1.53
UCUUAGCAAUAUUACGAAUA	self-splicing fitness (ln)	-3.59
ACGCAGCAAUAUUACGCCGU	self-splicing fitness (ln)	-3.33
CAGUAGCAAUAUUACGUGCA	self-splicing fitness (ln)	-3.14
GUACAGCAAUAUUACGUCAU	self-splicing fitness (ln)	-1.7
GUACAGCAAUAUUACGCUAG	self-splicing fitness (ln)	-1.88
UGAAAGCAAUAUUACGACUG	self-splicing fitness (ln)	0.192
AGUGAGCAAUAUUACGACGG	self-splicing fitness (ln)	-3.25
CGCCAGCAAUAUUACGAAUU	self-splicing fitness (ln)	-4.49
UAAUAGCAAUAUUACGCCGG	self-splicing fitness (ln)	-1.23
AAUGAGCAAUAUUACGCAAG	self-splicing fitness (ln)	-3.81
UUUGAGCAAUAUUACGAGGU	self-splicing fitness (ln)	-4.2
AUAGAGCAAUAUUACGUCUC	self-splicing fitness (ln)	-0.924
UCAAAGCAAUAUUACGUUCA	self-splicing fitness (ln)	-0.821
UACUAGCAAUAUUACGGUAU	self-splicing fitness (ln)	-2.78
CUUCAGCAAUAUUACGCGUU	self-splicing fitness (ln)	-2.33
UAACAGCAAUAUUACGGACA	self-splicing fitness (ln)	-0.353
UGCCAGCAAUAUUACGCCGA	self-splicing fitness (ln)	-2.56
CAAGAGCAAUAUUACGUUAC	self-splicing fitness (ln)	-2.55
AUCGAGCAAUAUUACGUGGU	self-splicing fitness (ln)	-3.23
AAGAAGCAAUAUUACGGUAU	self-splicing fitness (ln)	-2.08
AGAAAGCAAUAUUACGUGUA	self-splicing fitness (ln)	-2.13
AGUUAGCAAUAUUACGAGAU	self-splicing fitness (ln)	-2.15
UGGUAGCAAUAUUACGGCUA	self-splicing fitness (ln)	-1.37
GGAAAGCAAUAUUACGCGGU	self-splicing fitness (ln)	-3.32
GCAUAGCAAUAUUACGCCUG	self-splicing fitness (ln)	-1.22
CUGUAGCAAUAUUACGUAUA	self-splicing fitness (ln)	-3.03
GCAAAGCAAUAUUACGUGCU	self-splicing fitness (ln)	-3.46
UAGCAGCAAUAUUACGAGGA	self-splicing fitness (ln)	-3.39
GGAGAGCAAUAUUACGCUCG	self-splicing fitness (ln)	-2.7
GAUUAGCAAUAUUACGAAGG	self-splicing fitness (ln)	-3.53
UUCCAGCAAUAUUACGUGUU	self-splicing fitness (ln)	-4.2
ACGCAGCAAUAUUACGACGU	self-splicing fitness (ln)	-3.11
ACCGAGCAAUAUUACGGCUA	self-splicing fitness (ln)	-0.869
GACCAGCAAUAUUACGGCGC	self-splicing fitness (ln)	-0.331
UCUAAGCAAUAUUACGGCGC	self-splicing fitness (ln)	-1.94
UAAGAGCAAUAUUACGAGCG	self-splicing fitness (ln)	-3.12
UAUUAGCAAUAUUACGACCU	self-splicing fitness (ln)	-1.41
UUCAAGCAAUAUUACGUUAG	self-splicing fitness (ln)	-3.23
GUCCAGCAAUAUUACGGCGC	self-splicing fitness (ln)	-0.166
UGAAAGCAAUAUUACGCCGU	self-splicing fitness (ln)	-2.92
CUUAAGCAAUAUUACGCAUU	self-splicing fitness (ln)	-3.82
AUCUAGCAAUAUUACGAGUC	self-splicing fitness (ln)	-4.11
AAGCAGCAAUAUUACGAUGG	self-splicing fitness (ln)	-2.99
AUCAAGCAAUAUUACGGCAA	self-splicing fitness (ln)	-0.819
CAGAAGCAAUAUUACGAAUG	self-splicing fitness (ln)	-2.6
GCGCAGCAAUAUUACGCUAC	self-splicing fitness (ln)	-1.82
GGGGAGCAAUAUUACGCUUA	self-splicing fitness (ln)	-1.04
GAAUAGCAAUAUUACGUAGG	self-splicing fitness (ln)	-3.4
GUAUAGCAAUAUUACGACUA	self-splicing fitness (ln)	-0.438
UUUAAGCAAUAUUACGGCAG	self-splicing fitness (ln)	-0.39
CGCAAGCAAUAUUACGUGAU	self-splicing fitness (ln)	-4.09
UCCAAGCAAUAUUACGAUAG	self-splicing fitness (ln)	-2.81

Hello, the source for this data is the supplement of paper PMC7877785, in case you need it.
